assay: Inhibition of juvenile hormone esterase
Would you kindly list pIC50 for each of these molecules?
Number only, no unit.

Return value of pIC50 for input O=C(CSc1ccc(Br)cc1)C(F)(F)F , no commentary.
6.39

Return value of pIC50 for input CCc1ccccc1SCC(=O)C(F)(F)F , no commentary.
5.54

Return value of pIC50 for input O=C(CSc1ccc(F)cc1)C(F)(F)F , no commentary.
5.08

Return value of pIC50 for input O=C(CSc1c(F)c(F)cc(F)c1F)C(F)(F)F , no commentary.
5.92

Return value of pIC50 for input Cc1ccc(SCC(=O)C(F)(F)F)c(C)c1 , no commentary.
6.04

Return value of pIC50 for input CCCCCC/C=C/C(=O)C(F)(F)F , no commentary.
5.14

Return value of pIC50 for input COc1ccc(SCC(=O)C(F)(F)F)cc1 , no commentary.
5.89

Return value of pIC50 for input O=C(c1ccccc1)C(F)(F)F , no commentary.
3.04

Return value of pIC50 for input CC(C)(C)SCC(=O)C(F)(F)F , no commentary.
5.3

Return value of pIC50 for input CC(C)(C)c1ccc(SCC(=O)C(F)(F)F)cc1 , no commentary.
8.12

Return value of pIC50 for input CC(CCC1OC1(C)C)CC1OC1c1ccc(C(=O)C(F)(F)F)cc1 (configuration not stated) , no commentary.
3.3

Return value of pIC50 for input CCCCCCCCSC(CCC)C(=O)C(F)(F)F (configuration not stated) , no commentary.
4.09

Return value of pIC50 for input O=C(CSc1cc(Cl)ccc1Cl)C(F)(F)F , no commentary.
7.64

Return value of pIC50 for input CCCCCCCCCCC#CC(=O)C(F)(F)F , no commentary.
7.57

Return value of pIC50 for input CC(C)c1ccccc1SCC(=O)C(F)(F)F , no commentary.
6.47

Return value of pIC50 for input CCCCCCCCCCCCCSCC(=O)C(F)(F)F , no commentary.
7.35

Return value of pIC50 for input Cc1ccccc1CSCC(=O)C(F)(F)F , no commentary.
4.9

Return value of pIC50 for input CCCCCCCCS(=O)(=O)CC(=O)C(F)(F)F , no commentary.
6.9

Return value of pIC50 for input CC(C)=CCCC(C)CCSCC(=O)C(F)(F)F (configuration not stated) , no commentary.
8.35

Return value of pIC50 for input O=C(CS(=O)(=O)c1ccccc1)C(F)(F)F , no commentary.
3.98

Return value of pIC50 for input CCCCCCCCCCCCc1ccc(CSCC(=O)C(F)(F)F)cc1 , no commentary.
5.8

Return value of pIC50 for input Cc1cc(C)cc(SCC(=O)C(F)(F)F)c1 , no commentary.
5.74

Return value of pIC50 for input CCC(C)CSCC(=O)C(F)(F)F (configuration not stated) , no commentary.
5.8

Return value of pIC50 for input O=C(CSc1cccc(C(F)(F)F)c1)C(F)(F)F , no commentary.
5.6

Return value of pIC50 for input CN(C)c1ccc(SCC(=O)C(F)(F)F)cc1 , no commentary.
7.05

Return value of pIC50 for input O=C(CSc1ccccc1Nc1ccccc1)C(F)(F)F , no commentary.
7.52

Return value of pIC50 for input CCCCSCC(=O)C(F)(F)F , no commentary.
5.82

Return value of pIC50 for input CCCCCCCC(CCCC)SCC(=O)C(F)(F)F (configuration not stated) , no commentary.
7.16

Return value of pIC50 for input O=C(CSCc1ccccc1Cl)C(F)(F)F , no commentary.
5.18

Return value of pIC50 for input CCCCCCCCCCSCC(=O)C(F)(F)F , no commentary.
7.7

Return value of pIC50 for input O=C(C#Cc1ccccc1)C(F)(F)F , no commentary.
5.27

Return value of pIC50 for input CCCCCCCC(CCC)SCC(=O)C(F)(F)F (configuration not stated) , no commentary.
7.89

Return value of pIC50 for input O=C(CSc1ccc(O)cc1)C(F)(F)F , no commentary.
5.21

Return value of pIC50 for input O=C(CSc1cc(Cl)c(Cl)cc1Cl)C(F)(F)F , no commentary.
7.49

Return value of pIC50 for input O=C(CSc1cccc(Cl)c1)C(F)(F)F , no commentary.
6.4

Return value of pIC50 for input CCCCCCCCC(=O)C(F)(F)F , no commentary.
5.17

Return value of pIC50 for input CCCCCCCCCCCCSCC(=O)C(F)(F)F , no commentary.
7.82

Return value of pIC50 for input COc1cccc(SCC(=O)C(F)(F)F)c1 , no commentary.
5.89

Return value of pIC50 for input CCCCCCCC(C)SC(C)C(=O)C(F)(F)F (configuration not stated) , no commentary.
8.07

Return value of pIC50 for input CCCCCCCSCC(=O)C(F)(F)F , no commentary.
8.09

Return value of pIC50 for input Cc1ccc(SCC(=O)C(F)(F)F)cc1 , no commentary.
6.96

Return value of pIC50 for input CCCCCCCCCCCCCCCCSCC(=O)C(F)(F)F , no commentary.
6.2

Return value of pIC50 for input CC(C)(C)c1ccc([S+]([O-])CC(=O)C(F)(F)F)cc1 (configuration not stated) , no commentary.
7.64

Return value of pIC50 for input CCCCCCCCCCCCCCC(=O)C(F)(F)F , no commentary.
5.14

Return value of pIC50 for input O=C(CSc1ccc(Cl)c(Cl)c1)C(F)(F)F , no commentary.
7.7

Return value of pIC50 for input O=C(CSc1ccc(Cl)cc1)C(F)(F)F , no commentary.
5.89

Return value of pIC50 for input O=C(CSCCCc1ccccc1)C(F)(F)F , no commentary.
6.77

Return value of pIC50 for input O=C(CSC1CCCCC1)C(F)(F)F , no commentary.
5.28

Return value of pIC50 for input CCCCCCCCSCC(=O)C(F)(F)F , no commentary.
8.62

Return value of pIC50 for input CCCCCCCCC#CC(=O)C(F)(F)F , no commentary.
7.24

Return value of pIC50 for input CCCCCSCC(=O)C(F)(F)F , no commentary.
6.11

Return value of pIC50 for input O=C(CS(=O)(=O)CCc1ccccc1)C(F)(F)F , no commentary.
6.31

Return value of pIC50 for input COC(C)(C)CCCC(C)CCSCC(=O)C(F)(F)F (configuration not stated) , no commentary.
8.12

Return value of pIC50 for input CCCCCCCCCCCCC(=O)C(F)(F)F , no commentary.
7

Return value of pIC50 for input CCCCC(C)(C)CC(C)CSCC(=O)C(F)(F)F (configuration not stated) , no commentary.
7.98

Return value of pIC50 for input Cc1ccc(CSCC(=O)C(F)(F)F)cc1 , no commentary.
5.2

Return value of pIC50 for input O=C(CSc1ccccc1)C(F)(F)F , no commentary.
5.06

###

Would you kindly list pIC50 for each of these molecules?
test: Inhibition of juvenile hormone esterase
Number only, no unit.

Return value of pIC50 for input O=C(CSCc1ccc(Cl)cc1)C(F)(F)F , no commentary.
5.34

Return value of pIC50 for input CCCCCCCCCCC(=O)C(F)(F)F , no commentary.
6.66

Return value of pIC50 for input Cc1ccc(C)c(SCC(=O)C(F)(F)F)c1 , no commentary.
6.77

Return value of pIC50 for input O=C(C[S+]([O-])c1ccccc1)C(F)(F)F (centres undefined) , no commentary.
4.21

Return value of pIC50 for input CCCCCCCC(=O)C(F)(F)F , no commentary.
4.17

Return value of pIC50 for input O=C(CSc1c(F)c(F)c(F)c(F)c1F)C(F)(F)F , no commentary.
4.96

Return value of pIC50 for input O=C(CSCc1ccccc1)C(F)(F)F , no commentary.
4.82

Return value of pIC50 for input CCCCCCCCCCCCS(=O)(=O)CC(=O)C(F)(F)F , no commentary.
7.21

Return value of pIC50 for input Cc1cccc(CSCC(=O)C(F)(F)F)c1 , no commentary.
5.1

Return value of pIC50 for input CCCCCC/C=C\C(=O)C(F)(F)F , no commentary.
4.1

Return value of pIC50 for input Cc1ccccc1SCC(=O)C(F)(F)F , no commentary.
5.37

Return value of pIC50 for input O=C(CSc1cccc(Br)c1)C(F)(F)F , no commentary.
6.06

Return value of pIC50 for input CCCCCCCCCCCCCCSCC(=O)C(F)(F)F , no commentary.
6.4

Return value of pIC50 for input CCCCCCCC(C)SCC(=O)C(F)(F)F (centres undefined) , no commentary.
9.77
